The measurements presented in this section are drawn from PubChem BioAssay.

# measurementNotes: basal CRE-LacZ reporter activity in PC12 – cell-based, unstimulated, primary screen (AID 1145)
# protocolConditions: no forskolin, luminescence, 4.5 h, higher = more signal, called active from +8 up or from −8 down
Quick rule for you: z-score at 0.5 or higher means MET, lower means NOT MET.

Cc1ccc(C(C)CC(O)C2C=CC3C(=O)N(Cc4ccccc4)C(=O)C3N2n2cnnc2)o1 (centres undefined)    NOT MET
C/C=C/[C@@H](CCn1cc([C@H](O)c2ccccc2)nn1)[Si](C)(C)c1ccc(OC)cc1    MET
CO[C@H]1O[C@H](CO)[C@@H](OC(=O)Nc2ccc(C(F)(F)F)cc2)[C@H](OC(=O)Nc2ccccc2)[C@H]1OC(=O)Nc1ccccc1    MET
CC(C)CCC[C@@H](C)[C@H]1CC[C@@]2(C)C3=C(CC[C@]12C)[C@@]1(C)CC[C@H](OC(=O)C(C)(C)C)C(C)(C)C1CC3 (some centres undefined)    NOT MET
CC(C)(C)N1CC=CC23O[C@@H]4C=CCCOC(=O)C4[C@H]2C(=O)N(CCCO)[C@@H]3C1=O (some centres undefined)    NOT MET
Cc1cc(C)c(C(O)C2C=CC3C(=O)N(c4ccccc4)C(=O)C3N2Nc2ccc([N+](=O)[O-])cc2)c(C)c1 (centres undefined)    NOT MET
CCCCC(O)C1C=CC2C(=O)N(Cc3ccccc3)C(=O)C2N1n1cnnc1 (centres undefined)    MET
O=C1c2ccccc2[C@](Cc2ccccc2I)(C(=O)NCC(F)(F)F)[C@H](c2ccc(CO)cc2)N1Cc1ccccc1    NOT MET

From here, focus on the item given below.
Dear colleague, could you confirm whether `C=C(/C(=C/C[C@@H](OC(=O)c1ccncc1)c1ccccc1OCCO)c1cnc2ccccc2c1)C(C)C` has z-score at or above 0.5?
MET
